Measured ED50 by item
Target: Muscarinic acetylcholine receptor (Mus musculus) (UniProt Q920H4+Q9ERZ4+P12657+P32211+Q9ERZ3)
Assay: Analgesic activity after subcutaneous administration in male albino Swiss-Webster mice with the hotplate test
Type: functional, organism-based

MOLECULE	ED50
CC(C(=O)OC1CC2CCC(C1)N2C)c1ccccc1 (racemic)	5 mg/kg
CC(C(=O)OC1CC2CCC(C1)N2C)c1ccccc1Cl (centres undefined)	36 mg/kg
COc1ccc(C(C)C(=O)OC2CC3CCC(C2)N3C)cc1 (centres undefined)	32 mg/kg
O=C(OC1CC2CCC(C1)N2)C(CO)c1ccccc1 (centres undefined)	5 mg/kg

----------
Biological target: Muscarinic acetylcholine receptor (Mus musculus) (UniProt Q920H4+Q9ERZ4+P12657+P32211+Q9ERZ3)
Experiment: Analgesic activity after subcutaneous administration in male albino Swiss-Webster mice with the hotplate test
Format: functional, organism-based
Define the label as yes when ED50 is strictly less than 20 mg/kg and as no in all remaining cases.

COMPOUND	CATEGORY LABEL
CC(COC1CC2CCC(C1)N2C)c1ccc(Br)cc1 (centres undefined)	no
CN1[C@@H]2CC[C@H]1C[C@@H](OC(=O)C(CO)c1ccccc1)C2 (mixture of isomers)	yes
CC(C(=O)OC1CC2CCC(C1)N2C)c1ccc(Br)cc1 (stereo in doubt; (-)-19)	yes
CC(C(=O)OC1CC2CCC(C1)N2C)c1ccccc1Br (centres undefined)	no
CC(C(=O)OC1CC2CCC(C1)N2C)c1ccc(Cl)c(Cl)c1 (centres undefined)	yes
CC(C(=O)OC1CC2CCC(C1)N2C)c1cccs1 (centres undefined)	yes
CC(C(=O)OC1CC2CCC(C1)N2C)c1ccc(Br)cc1 (single isomer, unassigned; (+))	yes
C[C@H](C(=O)OC1CC2CCC(C1)N2C)c1ccccc1 (some centres undefined)	yes
CC(C(=O)OC1CC2CCC(C1)N2C)c1ccc(C(F)(F)F)cc1 (centres undefined)	no

----------
Measured ED50 by item
Molecular target: Muscarinic acetylcholine receptor (Mus musculus) (UniProt Q920H4+Q9ERZ4+P12657+P32211+Q9ERZ3)
Assay: Analgesic activity after subcutaneous administration in male albino Swiss-Webster mice with the hotplate test
Format: functional, organism-based

COMPOUND	UNITS SYMBOL	ED50
CC(C(=O)OC1CC2CCC(C1)N2C)c1ccc(N)cc1 (stereo not drawn)	mg/kg	6
CC(C(=O)OC1CC2CCC(C1)N2Cc1ccccc1)c1ccc(Br)cc1 (stereo not drawn)	mg/kg	28
CC(C(=O)OC1CC2CCC(C1)N2C)c1cccc(Cl)c1 (stereo not drawn)	mg/kg	37

Every entry's value here was drawn from ChEMBL document CHEMBL1127532.
